tested on: Sporothrix schenckii; assay: Antifungal activity against Sporothrix schenckii P30019 isolate from cutaneous-lymphatic sporotrichosis patient after 72 hrs by Sensititre YeastOne method; type: functional
Readout kind: MIC (µg/mL)
Numbers only, in µg/mL.

# Compound, MIC (µg/mL)
records = [
    ("Nc1nc(=O)[nH]cc1F", 1),
    ("CCC(C)n1ncn(-c2ccc(N3CCN(c4ccc(OCC5COC(Cn6cncn6)(c6ccc(Cl)cc6Cl)O5)cc4)CC3)cc2)c1=O (stereo unspecified)", 0.25),
    ("C[C@@H]1[C@H](O)[C@@H](C)/C=C/C=C/C=C/C=C/C=C/C=C/C=C/[C@H](O[C@@H]2O[C@H](C)[C@@H](O)[C@H](N)[C@@H]2O)C[C@@H]2O[C@](O)(C[C@@H](O)C[C@@H](O)[C@H](O)CC[C@@H](O)C[C@@H](O)CC(=O)O[C@H]1C)C[C@H](O)[C@H]2C(=O)O", 1),
]

Hey, quick one: what's MIC for each of these?
1. CC(=O)N1CCN(c2ccc(OCC3COC(Cn4ccnc4)(c4ccc(Cl)cc4Cl)O3)cc2)CC1 (stereo unspecified)
2. C[C@@H](c1ncncc1F)[C@](O)(Cn1cncn1)c1ccc(F)cc1F

Result:
0.125
1
